Ref: ChEMBL document CHEMBL1156241

biological target: Maltase-glucoamylase (Homo sapiens, UniProt O43451); assay: Inhibition of recombinant human maltase glucoamylase N-terminal catalytic domain
Sequence (O43451 whole entry, the tested form may be a part): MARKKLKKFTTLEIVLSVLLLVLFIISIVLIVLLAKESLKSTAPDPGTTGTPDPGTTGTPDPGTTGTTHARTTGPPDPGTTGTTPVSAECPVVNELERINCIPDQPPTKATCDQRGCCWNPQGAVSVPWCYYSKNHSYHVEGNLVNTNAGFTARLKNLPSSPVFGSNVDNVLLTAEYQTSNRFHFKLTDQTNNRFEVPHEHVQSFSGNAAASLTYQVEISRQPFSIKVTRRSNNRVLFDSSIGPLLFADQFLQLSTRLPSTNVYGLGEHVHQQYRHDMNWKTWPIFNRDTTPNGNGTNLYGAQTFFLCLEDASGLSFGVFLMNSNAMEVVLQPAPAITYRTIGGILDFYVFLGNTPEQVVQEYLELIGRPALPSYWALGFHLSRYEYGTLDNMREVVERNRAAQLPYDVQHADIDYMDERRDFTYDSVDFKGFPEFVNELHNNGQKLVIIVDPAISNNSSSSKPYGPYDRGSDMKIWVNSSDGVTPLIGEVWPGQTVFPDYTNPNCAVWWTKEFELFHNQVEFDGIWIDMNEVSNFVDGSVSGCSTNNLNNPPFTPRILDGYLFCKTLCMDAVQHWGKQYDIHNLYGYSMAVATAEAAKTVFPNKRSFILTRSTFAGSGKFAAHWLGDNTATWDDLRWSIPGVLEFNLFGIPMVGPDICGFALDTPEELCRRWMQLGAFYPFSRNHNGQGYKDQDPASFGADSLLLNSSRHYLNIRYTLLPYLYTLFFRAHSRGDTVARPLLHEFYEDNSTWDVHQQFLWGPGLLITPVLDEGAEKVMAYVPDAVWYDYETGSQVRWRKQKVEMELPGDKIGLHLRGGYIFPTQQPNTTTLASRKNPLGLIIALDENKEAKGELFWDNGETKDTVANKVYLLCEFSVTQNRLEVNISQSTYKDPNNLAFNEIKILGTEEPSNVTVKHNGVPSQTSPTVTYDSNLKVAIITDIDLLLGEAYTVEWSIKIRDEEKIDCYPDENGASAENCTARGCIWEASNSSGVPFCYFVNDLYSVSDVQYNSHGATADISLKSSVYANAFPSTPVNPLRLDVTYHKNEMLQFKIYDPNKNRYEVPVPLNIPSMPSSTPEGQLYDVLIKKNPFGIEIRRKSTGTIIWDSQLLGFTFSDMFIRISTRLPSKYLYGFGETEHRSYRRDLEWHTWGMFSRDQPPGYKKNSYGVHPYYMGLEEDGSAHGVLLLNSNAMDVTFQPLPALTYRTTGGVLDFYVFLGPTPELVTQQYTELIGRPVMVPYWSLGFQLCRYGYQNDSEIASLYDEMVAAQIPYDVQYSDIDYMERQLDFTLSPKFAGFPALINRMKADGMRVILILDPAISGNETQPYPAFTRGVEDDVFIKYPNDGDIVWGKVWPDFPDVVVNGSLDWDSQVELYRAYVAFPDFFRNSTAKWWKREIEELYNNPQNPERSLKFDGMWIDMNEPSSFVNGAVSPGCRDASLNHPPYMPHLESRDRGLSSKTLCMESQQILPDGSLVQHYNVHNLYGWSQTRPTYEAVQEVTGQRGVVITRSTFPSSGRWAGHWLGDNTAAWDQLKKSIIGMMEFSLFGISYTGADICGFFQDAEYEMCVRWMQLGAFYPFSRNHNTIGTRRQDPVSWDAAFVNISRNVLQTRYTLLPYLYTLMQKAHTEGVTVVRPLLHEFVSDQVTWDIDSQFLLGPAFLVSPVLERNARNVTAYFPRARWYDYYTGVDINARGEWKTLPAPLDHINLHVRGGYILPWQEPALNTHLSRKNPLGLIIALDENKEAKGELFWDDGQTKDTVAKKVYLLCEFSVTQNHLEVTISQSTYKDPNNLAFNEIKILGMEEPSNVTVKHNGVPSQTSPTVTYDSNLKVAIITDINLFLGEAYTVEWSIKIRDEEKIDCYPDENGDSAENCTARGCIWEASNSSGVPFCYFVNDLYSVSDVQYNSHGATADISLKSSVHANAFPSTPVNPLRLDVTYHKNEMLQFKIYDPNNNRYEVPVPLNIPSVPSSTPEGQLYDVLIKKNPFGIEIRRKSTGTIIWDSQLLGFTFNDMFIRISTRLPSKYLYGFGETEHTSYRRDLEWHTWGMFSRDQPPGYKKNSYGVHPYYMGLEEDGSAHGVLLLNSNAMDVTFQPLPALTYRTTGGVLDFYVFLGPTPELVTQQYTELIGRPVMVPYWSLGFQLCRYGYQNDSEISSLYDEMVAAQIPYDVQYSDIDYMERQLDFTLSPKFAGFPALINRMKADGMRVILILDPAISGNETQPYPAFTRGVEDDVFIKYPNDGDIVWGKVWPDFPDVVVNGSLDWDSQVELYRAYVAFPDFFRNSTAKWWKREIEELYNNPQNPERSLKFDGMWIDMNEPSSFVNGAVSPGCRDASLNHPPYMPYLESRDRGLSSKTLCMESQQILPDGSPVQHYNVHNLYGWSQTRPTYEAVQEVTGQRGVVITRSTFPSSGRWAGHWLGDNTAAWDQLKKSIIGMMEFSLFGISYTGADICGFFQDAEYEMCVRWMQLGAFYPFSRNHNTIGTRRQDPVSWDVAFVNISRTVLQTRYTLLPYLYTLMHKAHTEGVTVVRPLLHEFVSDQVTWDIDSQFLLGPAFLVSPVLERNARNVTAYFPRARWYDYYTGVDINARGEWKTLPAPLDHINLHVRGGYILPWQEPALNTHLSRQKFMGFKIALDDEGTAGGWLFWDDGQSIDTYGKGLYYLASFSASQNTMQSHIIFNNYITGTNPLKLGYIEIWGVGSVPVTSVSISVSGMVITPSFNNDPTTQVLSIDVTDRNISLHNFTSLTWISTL
MEASURE: Ki (nM)
The reply should be a number in nM, with the unit left off.

Exercise: Dear colleague, please send me the reported Ki for O=S(=O)([O-])O[C@@H]([C@H](O)[C@@H](O)[C@H](O)CO)[C@H](O)C[S+]1C[C@@H](O)[C@H](O)[C@H]1CO (some centres undefined) when you can.
Key: 130

Exercise: Read the entry O=S(=O)([O-])O[C@@H]([C@H](O)[C@@H](O)[C@@H](O)CO)[C@H](O)C[S+]1C[C@@H](O)[C@H](O)[C@H]1CO (some centres undefined) and write its reported Ki.
Key: 100

Exercise: State, in one line, measured Ki of O=S(=O)([O-])O[C@@H]([C@H](O)[C@H](O)[C@H](O)CO)[C@H](O)C[S+]1C[C@@H](O)[C@H](O)[C@H]1CO (some centres undefined)
Key: 200

Exercise: Provide Ki value for the following molecule: O=S(=O)([O-])O[C@@H]([C@H](O)[C@H](O)[C@@H](O)CO)[C@H](O)C[S+]1C[C@@H](O)[C@H](O)[C@H]1CO (some centres undefined)
Key: 190
